Items are presented alongside their recorded protein stability index.
B1: GALNT9 (parent)
chain: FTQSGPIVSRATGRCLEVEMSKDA

Variants of: B1
assay-notes: protein stability index of a GFP-peptide fusion (GPS, HEK-293T) (PSI 1-6); higher = more stable;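 note: lentivirally expressed fusions sorted by FACS into six bins by GFP to DsRed ratio, PSI derived from sequencing read proportions per bin multiplied by bin number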
assay-conditions: c terminus: a fixed tail appended

# annotated cases, reported protein stability index shown
S9H
1.67
G13A
1.86
E19P
2.57
R14E
3.03
R14Y
1.82
R14H
2.06
R10A
2.41
T12V
1.51
V8S
3.41
V18D
2.53

**Q:** Given the entry "V18H" , report its measured protein stability index.
**A:** 1.81

**Q:** Given the entry "T12P" , report its measured protein stability index.
**A:** 2.05

**Q:** Given the entry "E19K" , report its measured protein stability index.
**A:** 2.33

**Q:** Given the entry "A11T" , report its measured protein stability index.
**A:** 2.24

**Q:** Given the entry "E17V" , report its measured protein stability index.
**A:** 1.24

**Q:** Given the entry "S21P" , report its measured protein stability index.
**A:** 2.55

// provenance: the supplement of paper PMC10567573
